- Tgt: T1, SARS-CoV2 Spike ecto foldon Trimer expressed with a C-terminal myc-myc-hexahistidine (SARS-CoV-2, UniProt P0DTC2 14-1213)
- T1 construct: extracellular domain
- Measurement Protocol: SPR Biacore, mAb captured by anti-hFc, 37C
Attribute Measured: koff (s⁻¹)

Binder	Test Result
mAb14282 (antibody, V domains shown) VH: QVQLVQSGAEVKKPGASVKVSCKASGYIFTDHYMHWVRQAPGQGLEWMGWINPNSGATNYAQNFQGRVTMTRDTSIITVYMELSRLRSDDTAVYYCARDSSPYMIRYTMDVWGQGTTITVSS VL: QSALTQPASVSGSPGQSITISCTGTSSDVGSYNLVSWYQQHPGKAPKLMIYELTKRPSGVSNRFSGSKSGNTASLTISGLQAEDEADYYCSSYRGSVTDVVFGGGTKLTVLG	0.000171
mAb15165 (antibody, V domains shown) VH: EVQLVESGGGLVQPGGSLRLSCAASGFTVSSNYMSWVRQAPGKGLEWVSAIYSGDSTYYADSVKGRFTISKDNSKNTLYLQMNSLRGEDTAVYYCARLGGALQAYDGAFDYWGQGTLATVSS VL: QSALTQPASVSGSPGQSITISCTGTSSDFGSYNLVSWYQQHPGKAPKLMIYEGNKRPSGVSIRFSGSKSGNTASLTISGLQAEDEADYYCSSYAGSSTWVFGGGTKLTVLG	0.000115
